Tested on: PHK
ASSAY_REMARKS: PHK kinase selectivity assay
Type: biochemical
ASSAY_CONDITIONS: 1 μM inhibitor concentration
METRIC: percentage inhibition of PHK (percentage)

>  <COMPOUND>
c1cc2[nH]nc3c2c(n1)N(C1CCC1)CCC3 [Example 22]

>  <RESULT_VALUE>
41

$$$$
>  <COMPOUND>
CN1CCC(N2Cc3ccccc3-c3n[nH]c4ccnc2c34)CC1 [Example 55]

>  <RESULT_VALUE>
73

$$$$
>  <COMPOUND>
c1cc2[nH]nc3c2c(n1)N(C1CCOCC1)CCC3 [Example 29]

>  <RESULT_VALUE>
35

$$$$
>  <COMPOUND>
CC(C)n1ncc2c1CN(C1CCN(C)CC1)c1nccc3[nH]nc-2c13 [Example 68]

>  <RESULT_VALUE>
43

$$$$

* * *

EXPERIMENTAL_TARGET: MSK1 (Homo sapiens (Human), UniProt O75582)
Sequence (O75582 whole entry, species assumed): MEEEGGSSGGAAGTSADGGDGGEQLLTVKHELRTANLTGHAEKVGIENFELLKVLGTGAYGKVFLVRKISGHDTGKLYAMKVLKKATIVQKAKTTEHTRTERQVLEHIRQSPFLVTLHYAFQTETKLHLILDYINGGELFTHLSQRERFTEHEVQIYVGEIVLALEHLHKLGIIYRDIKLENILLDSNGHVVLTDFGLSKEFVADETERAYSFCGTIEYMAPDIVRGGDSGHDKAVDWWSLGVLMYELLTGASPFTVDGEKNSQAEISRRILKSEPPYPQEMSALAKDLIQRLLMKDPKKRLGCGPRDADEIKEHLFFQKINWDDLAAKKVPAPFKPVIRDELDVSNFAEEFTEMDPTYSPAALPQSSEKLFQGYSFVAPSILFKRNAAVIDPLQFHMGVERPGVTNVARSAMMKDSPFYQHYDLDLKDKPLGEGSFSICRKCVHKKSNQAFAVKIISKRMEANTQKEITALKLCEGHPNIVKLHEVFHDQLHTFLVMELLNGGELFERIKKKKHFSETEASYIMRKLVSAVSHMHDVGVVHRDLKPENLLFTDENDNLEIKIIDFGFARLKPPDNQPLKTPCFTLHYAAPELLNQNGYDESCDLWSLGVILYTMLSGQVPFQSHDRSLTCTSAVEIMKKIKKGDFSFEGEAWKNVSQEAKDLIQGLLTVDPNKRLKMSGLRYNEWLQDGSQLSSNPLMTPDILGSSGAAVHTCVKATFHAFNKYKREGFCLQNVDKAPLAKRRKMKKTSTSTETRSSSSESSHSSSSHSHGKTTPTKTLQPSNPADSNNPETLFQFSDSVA
ASSAY_REMARKS: MSK1 kinase selectivity assay
Format: biochemical
ASSAY_CONDITIONS: 1 μM inhibitor concentration
Text: […]

>  <CHEMICAL_STRING>
CN1CCC(N2Cc3ccccc3-c3n[nH]c4ccnc2c34)CC1

>  <EXPERIMENTAL_TARGET>
MSK1 (Homo sapiens (Human), UniProt O75582)

>  <percentage inhibition of MSK1>
34 percentage

$$$$
>  <CHEMICAL_STRING>
CC(C)n1ncc2c1CN(C1CCN(C)CC1)c1nccc3[nH]nc-2c13

>  <EXPERIMENTAL_TARGET>
MSK1 (Homo sapiens (Human), UniProt O75582)

>  <percentage inhibition of MSK1>
30 percentage

$$$$
>  <CHEMICAL_STRING>
c1cc2[nH]nc3c2c(n1)N(C1CCC1)CCC3

>  <EXPERIMENTAL_TARGET>
MSK1 (Homo sapiens (Human), UniProt O75582)

>  <percentage inhibition of MSK1>
2 percentage

$$$$
>  <CHEMICAL_STRING>
c1cc2[nH]nc3c2c(n1)N(C1CCCC1)CCC3

>  <EXPERIMENTAL_TARGET>
MSK1 (Homo sapiens (Human), UniProt O75582)

>  <percentage inhibition of MSK1>
2 percentage

$$$$
>  <CHEMICAL_STRING>
c1cc2[nH]nc3c2c(n1)N(C1CCOCC1)CCC3

>  <EXPERIMENTAL_TARGET>
MSK1 (Homo sapiens (Human), UniProt O75582)

>  <percentage inhibition of MSK1>
7 percentage

$$$$

* * *

EXPERIMENTAL_TARGET: NEK6 (Homo sapiens (Human), UniProt Q9HC98)
Sequence (Q9HC98 whole entry, species assumed): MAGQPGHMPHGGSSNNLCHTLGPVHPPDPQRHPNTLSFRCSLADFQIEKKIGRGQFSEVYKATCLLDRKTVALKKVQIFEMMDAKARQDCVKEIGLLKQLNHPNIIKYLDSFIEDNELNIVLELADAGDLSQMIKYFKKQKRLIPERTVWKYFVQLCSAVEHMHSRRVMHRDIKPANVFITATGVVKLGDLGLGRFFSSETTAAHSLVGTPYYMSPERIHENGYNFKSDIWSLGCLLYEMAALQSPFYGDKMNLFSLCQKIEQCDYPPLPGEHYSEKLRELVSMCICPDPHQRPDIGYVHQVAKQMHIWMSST
ASSAY_REMARKS: NEK6 kinase selectivity assay
Type: biochemical
ASSAY_CONDITIONS: 1 μM inhibitor concentration

>  <CHEMICAL_STRING>
c1cc2[nH]nc3c2c(n1)N(C1CCOCC1)CCC3

>  <percentage inhibition of NEK6>
1 percentage

$$$$
>  <CHEMICAL_STRING>
CN1CCC(N2Cc3ccccc3-c3n[nH]c4ccnc2c34)CC1

>  <percentage inhibition of NEK6>
0 percentage

$$$$
>  <CHEMICAL_STRING>
CC(C)n1ncc2c1CN(C1CCN(C)CC1)c1nccc3[nH]nc-2c13

>  <percentage inhibition of NEK6>
0 percentage

$$$$
>  <CHEMICAL_STRING>
c1cc2[nH]nc3c2c(n1)N(C1CCC1)CCC3

>  <percentage inhibition of NEK6>
3 percentage

$$$$
>  <CHEMICAL_STRING>
c1cc2[nH]nc3c2c(n1)N(C1CCCC1)CCC3

>  <percentage inhibition of NEK6>
1 percentage

$$$$
